- test-details: Fed and fasted oral administration of norketotifen to dogs (food effect PK)
- Format: in vivo
- test-parameters: dog, plasma, po, 4 mg/kg, Fed, 4 mg/kg oral

molecule	Cmax
O=C1Cc2ccccc2C(=C2CCNCC2)c2ccsc21 (racemic) [norketotifen]	58 ng/mL

---

- test-details: PK parameters in plasma and skin of dogs after 28 days of oral dosing
- Format: in vivo
- test-parameters: dog, plasma, po, dog plasma, after 28 days of oral dosing; read-out: MRT (mean residence time)

compound	unit-info	MRT
O=C1Cc2ccccc2C(=C2CCNCC2)c2ccsc21 (racemic) [norketotifen]	h	17.5

---

- test-details: PK parameters in plasma and skin of dogs after 28 days of oral dosing
- Assay type: in vivo
- test-parameters: dog, skin, po, dog skin, after 28 days of oral dosing; read-out: MRT (mean residence time)
- Description: However, for the treatment of the dermal and pulmonary disorders described herein for treatment efficacy, the dermal/pulmonary exposure are more important than systemic exposure, that is, efficacy depends on the skin/pulmonary AUC/Cmax, which are considered to be sites of action for these conditions. The pharmacokinetic parameters in skin and plasma after oral dosing of norketotifen to dogs (N=5) are shown below.
measured-parameter: MRT

compound	measured-parameter	observed-measurement
O=C1Cc2ccccc2C(=C2CCNCC2)c2ccsc21 (racemic)	MRT	86.5 h

---

- test-details: PK parameters in plasma and skin of dogs after 28 days of oral dosing
- Format: in vivo
- test-parameters: dog skin, after 28 days of oral dosing, N=5

molecule	AUC(0-inf) (ng·h/mL)
O=C1Cc2ccccc2C(=C2CCNCC2)c2ccsc21 (racemic) [norketotifen]	46100

---

- test-details: PK parameters in plasma and skin of dogs after 28 days of oral dosing
- Assay type: in vivo
- test-parameters: dog, skin, po, dog skin, Phase 2 = 14 day post dosing period; read-out: t ½(e) (phase 2) (converted)

compound	unit-info	half-life
O=C1Cc2ccccc2C(=C2CCNCC2)c2ccsc21 (racemic) [norketotifen]	h	160

---

- test-details: Distribution of norketotifen to the lungs after oral administration
- Assay type: in vivo
- test-parameters: lung / plasma, read-out: Lung concentration relative to plasma concentration

compound	Kp
O=C1Cc2ccccc2C(=C2CCNCC2)c2ccsc21 (racemic) [norketotifen]	~100

---

- test-details: PK parameters in plasma and skin of dogs after 28 days of oral dosing
- Type: in vivo
- test-parameters: dog, plasma, po, dog plasma, after 28 days of oral dosing; read-out: t ½(e) (converted)
measured-parameter: half-life (h)

compound	measured-parameter	observed-measurement
O=C1Cc2ccccc2C(=C2CCNCC2)c2ccsc21 (racemic) [norketotifen]	half-life	38.3

---

- test-details: Fed and fasted oral administration of norketotifen to dogs (food effect PK)
- Type: in vivo
- test-parameters: dog, plasma, po, 4 mg/kg, Fast (fasted overnight until 4 h post dose), 4 mg/kg oral
- Method: Norketotifen was administered to dogs with and without food. For fed animals, canned food (one can (374 g) of Lamb Ground Dinner with Chicken & Rice per dog was weighed then offered for a period of 30 min prior to dosing at 4 mg/kg. After dosing, dry food (25% protein) was offered. For fasted animals, dogs were fasted overnight and until 4 h post dose and then offered dry food. The results are given in Table 2.

molecule	Cmax (ng/mL)
O=C1Cc2ccccc2C(=C2CCNCC2)c2ccsc21 (racemic)	93
